Compiled from multiple publications: IC50 readings for Tyrosine-protein kinase JAK1 (Homo sapiens).

Consider the reported IC50 for these molecules:
Give the measured IC50 of Cc1cc(-c2cc3nccn3c(-c3cnn(C(CC#N)C4CC4)c3)n2)ccn1 (centres unmarked) . 100 to 1000 nM

Give the measured IC50 of Cc1nn(C)cc1Nc1ncc(Cl)c(NC2CCC3(CC2)CCN(C(=O)CC#N)CC3)n1 . 16 nM

Give the measured IC50 of CC1(C)[C@H](Nc2c(C(N)=O)cnn3cc(NS(C)(=O)=O)cc23)CC[C@@]1(C)O (racemic) . 45.8 nM

Give the measured IC50 of COCCC(c1ccc(F)cc1)n1cc(-c2nc(-c3cnn(C)c3)cc3nccn23)cn1 (centres unmarked) . 100 to 1000 nM

Give the measured IC50 of CC(C)C1=CB(O)Oc2ccc(Nc3nn([C@@H]4CCCC[C@H]4C#N)cc3C(N)=O)cc21 (relative stereo) . 10 to 50 nM

Give the measured IC50 of Cn1cc(Nc2ncc(Cl)c(NC3COC4C(NS(C)(=O)=O)COC34)n2)cn1 (centres unmarked) . 31 nM

Give the measured IC50 of Cc1nc2cc(Nc3ncc(Cl)c(NC4CCN(c5ccc(C#N)nn5)CC4)n3)ccn2c1C . 0.3 nM

Give the measured IC50 of Cn1cc(Nc2ncc(Cl)c(NC3CC4CN(C(=O)C5CC5)CC4C3)n2)cn1 (centres unmarked) . 6 nM

Give the measured IC50 of CS(=O)(=O)OCC(=O)Nc1cccc(-c2cnc3ccccc3n2)c1 . > 10000 nM

Give the measured IC50 of CCOC(=O)c1cnc2[nH]ccc2c1NC1CCCC(O)C1 (centres unmarked) . 10 to 100 nM

Continuing:
Give the measured IC50 of Cn1cc(Nc2ncc(Cl)c(NC3CC4CN(C(=O)C(F)(F)F)CC4C3)n2)cn1 (centres unmarked) . 2 nM

Give the measured IC50 of Cc1cnc(Nc2cnn(C3CC3)c2)nc1N1CC(CC#N)(N2CCN3C[C@H](F)C[C@H]3C2)C1 . < 10 nM

Give the measured IC50 of Cc1cnc2nc1Nc1cccc(c1)CCNC(=O)c1ccc(cc1S(C)(=O)=O)-c1cnc(F)c(c1)N2 . < 10 nM

Give the measured IC50 of Cn1cc(-c2cc3nccn3c(-c3cnn(C4(CC#N)CC5(CCCCC5)C4)c3)n2)cn1 . 100 to 1000 nM

---

Compiled from multiple publications: pIC50 readings for Tyrosine-protein kinase JAK1 (Homo sapiens, UniProt P23458).
pIC50: −log10 of the molar value.

Consider the reported pIC50 for these compounds:
Form entry - test system: Tyrosine-protein kinase JAK1 (Homo sapiens, UniProt P23458); read-out: pIC50; compound: CNC(=O)c1n[nH]c2cc(-c3cc(F)c(O)cc3CC(F)(F)F)nc(NCC3CCCC3)c12 7.73

Form entry - test system: Tyrosine-protein kinase JAK1 (Homo sapiens, UniProt P23458); read-out: pIC50; compound: N#Cc1cccc(S(=O)(=O)N[C@H]2C[C@@H](Nc3c(-c4nccs4)cnc4[nH]ccc34)C2)c1 ≥ 8.00

Form entry - test system: Tyrosine-protein kinase JAK1 (Homo sapiens, UniProt P23458); read-out: pIC50; compound: Cc1cc(Nc2cc3ncccc3c(N[C@@H]3C[C@@H]4CN(CCC#N)C[C@@H]4C3)n2)n[nH]1 9.07

Form entry - test system: Tyrosine-protein kinase JAK1 (Homo sapiens, UniProt P23458); read-out: pIC50; compound: CC(C#N)C(=O)Nc1cccc2c1ccn2-c1ccnc(NC(=O)C2CC2)c1 (centres unmarked) 6.00 to 7.00

Form entry - test system: Tyrosine-protein kinase JAK1 (Homo sapiens, UniProt P23458); read-out: pIC50; compound: O=C(NCC(F)(F)F)Nc1cccc2c1ccn2-c1ccnc(NC(=O)C2CC2)c1 > 7.00

Continuing:
Form entry - test system: Tyrosine-protein kinase JAK1 (Homo sapiens, UniProt P23458); read-out: pIC50; compound: CCCOC(=O)c1cnc2[nH]ccc2c1-c1cnn([C@H](CC#N)C2CCCC2)c1 ≥ 8.00

Form entry - test system: Tyrosine-protein kinase JAK1 (Homo sapiens, UniProt P23458); read-out: pIC50; compound: COc1cc(C#N)cc(F)c1COc1ccc2cc1COCCCCNC(=O)c1ccc(c(N)c1)-c1ccnc(n1)N2 5.00 to 6.00

Form entry - test system: Tyrosine-protein kinase JAK1 (Homo sapiens, UniProt P23458); read-out: pIC50; compound: Cc1c2ccc(Nc3ncc(Cl)c(NC4CCN(c5ccc(C#N)nn5)CC4)n3)cc2nn1C > 9.52
